- target.entity: T1, cynomolgus soluble urokinase plasminogen activator receptor (suPAR) (cynomolgus, UniProt Q9GK78 23-303, limits assumed)
- T1 construct: Target antigen of the scFv off-rate screen; also called cynomolgus suPAR; cynomolgus uPAR
- experiment.notes: BLI (Octet) off-rate screen of scFv clones
true (1) if koff is below 0.0005 s⁻¹. false (0) if not; exact matches included in false (0).

Some entries whose results are on file:
binder	class
suPAR_DB06_F03 (scFv, V domains shown) VH: QVQLVQSGAEVKKPGASVKVSCKASGYSFTNYYMHWVRQAPGQGLEWMGWIDHENGNTIYDQKFQGRVTMTRDTSTSTVYMELSSLRSEDTAVYYCARGNDVDWFVYWGQGTLVTVSS VL: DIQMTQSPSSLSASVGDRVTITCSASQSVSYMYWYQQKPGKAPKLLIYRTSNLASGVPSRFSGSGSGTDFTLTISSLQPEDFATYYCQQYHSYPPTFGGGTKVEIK	false (0)
suPAR_DB06_E12 (scFv, V domains shown) VH: QVQLVQSGAEVKKPGASVKVSCKASGYTFTSYYMHWVRQAPGQGLEWMGWIDHENGNTSYAQKFQGRVTMTRDTSTSTVYMELSSLRSEDTAVYYCARGYDVDWFVYWGQGTLVTVSS VL: DIQMTQSPSSLSASVGDRVTITCRARSSVSYMYWYQQKPGKAPKLLIYRTSNLASGVPSRFSGSGSGTDFTLTISSLQPEDFATYYCQQYHSYPPTFGGGTKVEIK	true (1)

Check if koff falls below 0.0005 s⁻¹ for suPAR_DB06_B12 (scFv, V domains shown) VH: QVQLVQSGAEVKKPGASVKVSCKASGYTFTNYYMHWVRQAPGQGLEWMGWIDPEGGNTIYDQKFQGRVTMTRDTSTSTVYMELSSLRSEDTAVYYCARGYDVDWFVYWGQGTLVTVSS VL: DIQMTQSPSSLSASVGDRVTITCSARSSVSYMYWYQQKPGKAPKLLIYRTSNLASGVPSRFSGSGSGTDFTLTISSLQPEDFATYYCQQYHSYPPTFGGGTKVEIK .
true (1)

Lab log: compare recorded koff with 0.0005 s⁻¹; is it strictly lower for suPAR_DB06_F07 (scFv, V domains shown) VH: QVQLVQSGAEVKKPGASVKVSCKASGYTFTNYYMHWVRQAPGQGLEWMGWIDHENGNTIYDQKFQGRVTMTRDTSTSTVYMELSSLRSEDTAVYYCARGYDVDWFVYWGQGTLVTVSS VL: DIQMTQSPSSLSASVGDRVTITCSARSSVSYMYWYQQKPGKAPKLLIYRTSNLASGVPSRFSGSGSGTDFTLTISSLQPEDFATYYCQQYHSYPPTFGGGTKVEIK ?
true (1)

State whether 0.0005 s⁻¹ exceeds koff recorded for suPAR_DB06_C10 (scFv, V domains shown) VH: QVQLVQSGAEVKKPGASVKVSCKASGYTFSAYYMHWVRQAPGQGLEWMGWIDPSNGNTIYDQKFQGRVTMTRDTSTSTVYMELSSLRSEDTAVYYCARGYDVDWFVYWGQGTLVTVSS VL: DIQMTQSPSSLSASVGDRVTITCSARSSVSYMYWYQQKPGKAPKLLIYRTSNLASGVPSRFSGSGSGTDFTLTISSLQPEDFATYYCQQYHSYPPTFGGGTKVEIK .
true (1)
